# subject of test: CDK7/Cyclin H/MAT1 complex (Homo sapiens, UniProt P50613)
# Sequence (P50613 whole entry, species assumed): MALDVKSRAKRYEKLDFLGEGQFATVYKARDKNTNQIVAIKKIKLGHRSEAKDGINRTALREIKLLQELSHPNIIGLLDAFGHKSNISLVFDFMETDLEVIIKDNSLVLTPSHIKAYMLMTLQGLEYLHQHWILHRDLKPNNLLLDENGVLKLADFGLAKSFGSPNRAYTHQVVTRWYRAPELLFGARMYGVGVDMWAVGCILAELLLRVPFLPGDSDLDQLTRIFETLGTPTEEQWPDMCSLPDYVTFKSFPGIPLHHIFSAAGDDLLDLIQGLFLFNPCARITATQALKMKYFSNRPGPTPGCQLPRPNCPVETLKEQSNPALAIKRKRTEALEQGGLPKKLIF
# Sequence (P51946 whole entry partner, species assumed): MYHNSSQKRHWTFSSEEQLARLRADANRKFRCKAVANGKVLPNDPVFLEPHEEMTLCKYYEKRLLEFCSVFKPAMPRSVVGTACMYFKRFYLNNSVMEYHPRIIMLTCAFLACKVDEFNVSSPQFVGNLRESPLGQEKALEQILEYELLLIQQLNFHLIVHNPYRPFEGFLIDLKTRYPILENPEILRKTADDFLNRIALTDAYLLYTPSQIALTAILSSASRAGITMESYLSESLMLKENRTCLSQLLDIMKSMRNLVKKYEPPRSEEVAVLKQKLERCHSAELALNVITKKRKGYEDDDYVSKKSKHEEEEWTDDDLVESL
# Sequence (P51948 whole entry partner, species assumed): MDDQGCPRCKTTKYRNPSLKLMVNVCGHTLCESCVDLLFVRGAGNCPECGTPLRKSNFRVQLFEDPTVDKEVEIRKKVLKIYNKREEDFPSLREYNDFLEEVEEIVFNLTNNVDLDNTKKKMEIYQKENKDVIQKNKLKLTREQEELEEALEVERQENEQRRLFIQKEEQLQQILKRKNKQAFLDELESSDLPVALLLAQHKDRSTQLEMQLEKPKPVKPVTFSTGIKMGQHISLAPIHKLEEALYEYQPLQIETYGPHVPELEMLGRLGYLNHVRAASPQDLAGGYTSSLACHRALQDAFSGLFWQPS
# test method notes: CDK7 inhibition assay (Caliper/LabChip EZ Reader kinase assay)
# Type: biochemical
# particulars: Table 1; CDK7/Cyclin H/MAT1 6 nM, ATP 2 mM, 35 min at 27° C.
measurement type: IC50

Example molecules with recorded IC50:
                                   molecule        reported
0  C#Cc1cnc(N[C@H]2CCCNC2)nc1-c1c[nH]c2ccccc12         < 20 nM
1  CC(O)c1cnc(NC2CCCNC2)nc1-c1c[nH]c2ccccc12 (single isomer, unassigned) [Compound 239]  200 to 5000 nM
2  Cn1ccc(-c2ccc3c(-c4nc(N[C@H]5CCCNC5)ncc4C(F)(F)F)c[nH]c3c2)n1         < 20 nM
3  CCCCCC1CC[C@H](Nc2ncc(C(F)(F)F)c(-c3c[nH]c4ccccc34)n2)CN1 (mixture of isomers)    20 to 200 nM
4  O[C@H]1CNC[C@@H](Nc2ncc(C(F)(F)F)c(-c3c[nH]c4ccccc34)n2)C1         < 20 nM
5  CCc1cnc(N[C@H]2CCCNC2)nc1-c1c[nH]c2c(S(C)(=O)=O)cccc12         < 20 nM
6  C[C@H]1CCNC[C@H]1Nc1ncc(C(F)(F)F)c(-c2c[nH]c3ccccc23)n1  200 to 5000 nM
7  FC(F)(F)c1cnc(N[C@H]2CCCNC2)nc1-c1c[nH]c2c(-c3ccnnc3)cccc12         < 20 nM

Value of measured IC50 for the entry Cn1ncc2ccc(-c3ccc4c(-c5nc(N[C@H]6CCCNC6)ncc5C(F)(F)F)c[nH]c4c3)cc21 : 20 to 200 nM

# molecule Clc1cnc(N[C@H]2CN3CCC2CC3)nc1-c1c[nH]c2ccccc12 ; its IC50 = > 5000 nM

Recorded result, NS(=O)(=O)c1ccc(-c2ccc3c(-c4nc(N[C@H]5CCCNC5)ncc4C(F)(F)F)c[nH]c3c2)cc1 , IC50: 20 to 200 nM

molecule Cc1nn(C)cc1-c1ccc2c(-c3nc(N[C@H]4CCCNC4)ncc3C(F)(F)F)c[nH]c2c1 , IC50 observed: < 20 nM

Entry Cn1cc(-c2ccc3c(-c4nc(NC5CCCNC5)ncc4C(F)(F)F)c[nH]c3c2)ccc1=O (centres unmarked) , IC50 reported as < 20 nM

* * *

# subject of test: CDK9/Cyclin T1 complex (Homo sapiens, UniProt P50750)
# Sequence (P50750 whole entry, species assumed): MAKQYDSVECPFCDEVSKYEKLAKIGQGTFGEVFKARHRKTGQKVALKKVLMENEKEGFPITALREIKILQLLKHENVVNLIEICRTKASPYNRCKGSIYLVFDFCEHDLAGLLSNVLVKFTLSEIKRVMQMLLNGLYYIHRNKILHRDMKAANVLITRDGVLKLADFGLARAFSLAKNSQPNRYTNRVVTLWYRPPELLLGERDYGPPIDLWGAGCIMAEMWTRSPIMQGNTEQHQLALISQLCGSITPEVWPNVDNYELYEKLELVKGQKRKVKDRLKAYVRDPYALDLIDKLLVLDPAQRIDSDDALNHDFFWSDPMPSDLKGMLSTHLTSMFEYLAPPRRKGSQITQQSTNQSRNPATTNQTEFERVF
# Sequence (O60563 whole entry partner, species assumed): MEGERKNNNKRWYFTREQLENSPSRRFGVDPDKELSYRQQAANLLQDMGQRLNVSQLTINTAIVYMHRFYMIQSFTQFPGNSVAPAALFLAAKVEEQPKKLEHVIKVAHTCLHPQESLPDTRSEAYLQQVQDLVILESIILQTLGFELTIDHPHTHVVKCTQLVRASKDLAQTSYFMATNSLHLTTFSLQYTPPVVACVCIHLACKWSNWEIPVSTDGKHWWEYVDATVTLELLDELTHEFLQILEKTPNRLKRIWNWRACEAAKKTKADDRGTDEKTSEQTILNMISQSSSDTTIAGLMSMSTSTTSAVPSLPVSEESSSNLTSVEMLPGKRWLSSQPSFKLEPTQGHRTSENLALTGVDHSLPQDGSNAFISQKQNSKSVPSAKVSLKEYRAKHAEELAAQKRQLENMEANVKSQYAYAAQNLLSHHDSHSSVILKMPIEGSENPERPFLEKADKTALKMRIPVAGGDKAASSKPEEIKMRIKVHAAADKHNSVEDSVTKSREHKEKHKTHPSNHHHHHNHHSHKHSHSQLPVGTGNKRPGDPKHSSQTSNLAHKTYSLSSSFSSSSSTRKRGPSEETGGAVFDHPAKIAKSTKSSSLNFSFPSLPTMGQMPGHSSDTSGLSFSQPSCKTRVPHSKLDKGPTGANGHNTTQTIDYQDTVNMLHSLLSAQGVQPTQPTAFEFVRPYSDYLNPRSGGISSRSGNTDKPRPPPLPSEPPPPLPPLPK
# test method notes: CDK9 inhibition assay (Caliper/LabChip EZ Reader kinase assay)
# Format: biochemical
# particulars: Table 1; CDK9/Cyclin T1 8 nM, ATP 2 mM, 15 min at 27° C.
Readings of IC50 for the listed molecules

Before answering, review these 4 worked examples.
>>> df
                                   molecule     reported
0  CC1(O)CCC(c2cccc3c(-c4nc(N[C@H]5CCCNC5)ncc4C(F)(F)F)c[nH]c23)CC1 (single isomer, unassigned) [Compound 192]  0.2 to 5 µM
1  N#Cc1cc2[nH]cc(-c3nc(N[C@H]4CCCNC4)ncc3C(F)(F)F)c2cc1F [Compound 197]  0.2 to 5 µM
2  FC(F)(F)c1cnc(N[C@H]2CCCNC2)nc1-c1c[nH]c2cc(-c3cccc(Oc4ccccc4)c3)ccc12 [Compound 341]       > 5 µM
3  CC[C@H]1CC[C@H](Nc2ncc(C(F)(F)F)c(-c3c[nH]c4ccccc34)n2)CN1 [Compound 217]  0.2 to 5 µM

Kindly consider the entry below.
Given item FC(F)(F)c1cnc(NC2CNCc3ccccc32)nc1-c1c[nH]c2ccccc12 (centres unmarked) [Compound 216] , the value recorded as its IC50 is > 5 µM

* * *

# subject of test: CDK9/Cyclin T1 complex (Homo sapiens, UniProt P50750)
# test method notes: CDK9 inhibition assay (Caliper/LabChip EZ Reader kinase assay)
# Assay type: biochemical
# particulars: Table 1; CDK9/Cyclin T1 8 nM, ATP 2 mM, 15 min at 27° C.
pIC50: −log10 of the molar value.
measurement type: pIC50

// pIC50 (CDK9/Cyclin T1 complex (Homo sapiens, UniProt P50750)) for O[C@H]1CC[C@@H](c2cccc3c(-c4nc(N[C@H]5CCCNC5)ncc4C(F)(F)F)c[nH]c32)CC1 = 5.30 to 6.70

Record CNC(=O)[C@@H]1CNC[C@@H](Nc2ncc(C(F)(F)F)c(-c3c[nH]c4ccccc34)n2)C1 has CDK9/Cyclin T1 complex (Homo sapiens, UniProt P50750) pIC50 equal to < 5.30

Observed pIC50 on CDK9/Cyclin T1 complex (Homo sapiens, UniProt P50750), entry O=c1[nH]cc(-c2ccc3c(-c4nc(N[C@H]5CCCNC5)ncc4C(F)(F)F)c[nH]c3c2)c(=O)[nH]1 , equals < 5.30

The reported pIC50 value, CDK9/Cyclin T1 complex (Homo sapiens, UniProt P50750), for N#Cc1cc(-c2ccc3c(-c4nc(N[C@H]5CCCNC5)ncc4C(F)(F)F)c[nH]c3c2)c[nH]1 reads 5.30 to 6.70

* * *

# subject of test: CDK9/Cyclin T1 complex (Homo sapiens, UniProt P50750)
# test method notes: CDK9 inhibition assay (Caliper/LabChip EZ Reader kinase assay)
# Format: biochemical
# particulars: Table 1; CDK9/Cyclin T1 8 nM, ATP 2 mM, 15 min at 27° C.
measurement type: IC50

In [3]: df
Out[3]:
                                   molecule  measurement_type     reported
0  Cc1c(-c2ccc3c(-c4nc(N[C@H]5CCCNC5)ncc4C(F)(F)F)c[nH]c3c2)c[nH]c(=O)c1C#N              IC50  0.2 to 5 µM
1  FC(F)(F)c1cnc(N[C@H]2CNC[C@@H](c3nnc4ccccn34)C2)nc1-c1c[nH]c2ccccc12              IC50       > 5 µM
2  CC(O)c1cnc(NC2CCCNC2)nc1-c1c[nH]c2ccccc12 (single isomer, unassigned) [Compound 239]              IC50       > 5 µM
3  CCN1C[C@@H](Nc2ncc(C(F)(F)F)c(-c3c[nH]c4cc(S(C)(=O)=O)ccc34)n2)CC(C)(C)C1              IC50       > 5 µM
4  Cc1noc(C)c1-c1ccc2c(-c3nc(N[C@H]4CCCNC4)ncc3C(F)(F)F)c[nH]c2c1              IC50  0.2 to 5 µM

The measured IC50 associated with FC(F)(F)c1cnc(N[C@H]2CCCNC2)nc1-c1c[nH]c2cc(-c3cnccn3)ccc12 reads 0.2 to 5 µM

The molecule listed as FC(F)n1cc(-c2ccc3c(-c4nc(N[C@H]5CCCNC5)ncc4C(F)(F)F)c[nH]c3c2)cn1 shows IC50 equal to 0.2 to 5 µM

So, N#Cc1cn(-c2ccc3c(-c4nc(NC5CCCNC5)ncc4C(F)(F)F)c[nH]c3c2)cn1 (centres unmarked) ? Its IC50 was > 5 µM

* * *

# subject of test: CDK2/Cyclin E1 complex (Homo sapiens, UniProt P24941)
# test method notes: CDK2 inhibition assay (Caliper/LabChip EZ Reader kinase assay)
# Type: biochemical
# particulars: Table 1; CDK2/Cyclin E1 0.5 nM, ATP 2 mM, 35 min at 27° C.
pIC50: −log10 of the molar value.
measurement type: pIC50

                                   compound  measurement_type  reported
0  COCn1cc(-c2nc(NC3CCCNC3)ncc2C(F)(F)F)c2ccc(C#N)nc21 (centres unmarked)             pIC50    < 5.30

The compound CCc1cnc(N[C@H]2CCCNC2)nc1-c1n[nH]c2ncccc12 on CDK2/Cyclin E1 complex (Homo sapiens, UniProt P24941): pIC50 was 5.30 to 6.70

Bench note, CDK2/Cyclin E1 complex (Homo sapiens, UniProt P24941): O=C(O)c1ccc2c(-c3nc(N[C@H]4CCCNC4)ncc3C(F)(F)F)c[nH]c2c1 , pIC50 reads 5.30 to 6.70

For Cc1n[nH]cc1-c1cccc2c(-c3nc(NC4CCCNC4)ncc3C(F)(F)F)c[nH]c12 (stereo in doubt) on CDK2/Cyclin E1 complex (Homo sapiens, UniProt P24941), measured pIC50 was 5.30 to 6.70

Log: CDK2/Cyclin E1 complex (Homo sapiens, UniProt P24941), compound CCN1C[C@@H](Nc2ncc(C(F)(F)F)c(-c3c[nH]c4cc(S(C)(=O)=O)ccc34)n2)CC(C)(C)C1 , pIC50 = < 5.30

Fill in: CDK2/Cyclin E1 complex (Homo sapiens, UniProt P24941) pIC50 for FC(F)n1ccc(-c2ccc3c(-c4nc(N[C@H]5CCCNC5)ncc4C(F)(F)F)c[nH]c3c2)n1 = 5.30 to 6.70

The measured pIC50 that CN1CCC[C@H](Nc2ncc(C(F)(F)F)c(-c3c[nH]c4cc(S(C)(=O)=O)ccc34)n2)C1 showed for CDK2/Cyclin E1 complex (Homo sapiens, UniProt P24941) is < 5.30
